# protocol-text: Induction of anti-CD3/CD28 antibodies-stimulated human T cell activation at 4 uM assessed fold increase in IL-2 secretion measured by ELISA assay
# Format: functional, T cell line
measurement-name: fold change (FC)

Consider the worked cases shown below.
INSERT INTO assay_data (cpd_smiles, reported) VALUES
  ('C[C@H](Cc1nncn1C)c1cccc(NC(=O)c2cc3cc(N4CCNCC4)ccc3cn2)c1.Cl', 2.51),
  ('C[C@H](Cc1nncn1C)c1cccc(N2Cc3c(cc(CN4CC(C)(O)C4)cc3C(F)(F)F)C2=O)c1', '>=7.5'),
  ('Cn1cnnc1CC(C)(C)c1cccc(NC(=O)c2cccc(C(F)(F)F)n2)c1', '>=7.5'),
  ('C[C@H](Cc1nncn1C)c1cccc(N2Cc3c(cc([C@H](C)N4CC(O)C4)cc3C(F)(F)F)C2=O)c1', '>=7.5'),
  ('C[C@H](Sc1nncn1C)c1cccc(NC(=O)c2ccc(C#N)c(C3CC3)n2)c1', 5),
  ('Cn1cnnc1C[C@H](c1cccc(N2Cc3c(cccc3C(F)(F)F)C2=O)c1)C(F)(F)F', 1.01),
  ('C[C@H](Cc1nncn1C)c1cccc(N2Cc3c(cc([C@@H](C)N4CC[C@H](F)C4)cc3C(F)(F)F)C2=O)c1', '>=7.5');

Which measured fold change (FC) value corresponds to `C[C@H](Cc1nncn1C)c1cccc(N2Cc3c(cc(CN4CC[C@H](F)C4)cc3C(F)(F)F)C2=O)c1` ?
>=7.5

====

# protocol-text: Induction of anti-CD3/CD28 antibodies-stimulated human T cell activation at 0.3 uM assessed fold increase in IL-2 secretion measured by ELISA assay
# Assay type: functional, T cell line
measurement-name: fold change (FC)
Please respond with just the number, no unit label.

Consider the worked cases shown below.
INSERT INTO assay_data (compound, measurement_name, reported) VALUES
  ('Cn1cnnc1CC1(c2cccc(N3Cc4c(cc(CN5CC[C@H](c6ccccc6)C5)cc4C(F)(F)F)C3=O)c2)COC1', 'fold change (FC)', 5),
  ('Cn1cnnc1[C@@H](F)[C@](C)(F)c1cccc(N2Cc3c(cccc3C(F)(F)F)C2=O)c1 (single isomer, unassigned)', 'fold change (FC)', 1.01),
  ('Cn1cnnc1CC1(c2cccc(N3Cc4c(cc(CN5CC(F)C5)cc4C(F)(F)F)C3=O)c2)COC1', 'fold change (FC)', 5),
  ('Cn1cnnc1C(F)(F)C(C)(F)c1cccc(N2Cc3c(cc(CN4CC[C@@H](F)C4)cc3C(F)(F)F)C2=O)c1 (single isomer, unassigned)', 'fold change (FC)', 2.51),
  ('C[C@H](Cc1nncn1C)c1cccc(NC(=O)c2ccnc(C3CC3)n2)c1', 'fold change (FC)', 2.51),
  ('C[C@H](Cc1nncn1C)c1cccc(N2Cc3c(cc(C(=O)N4CC[C@H](O)C4)cc3C3CC3)C2=O)c1', 'fold change (FC)', 1.01),
  ('C[C@H](Cc1nncn1C)c1cccc(NC(=O)c2cc(C3CC3)nc(C3CC3)n2)c1', 'fold change (FC)', 2.51);

--- query ---
Which measured fold change (FC) value corresponds to Cn1cnnc1[C@H](F)C(C)(F)c1cccc(N2Cc3c(cccc3C(F)(F)F)C2=O)c1 (single isomer, unassigned) ?
1.01

====

# protocol-text: Induction of anti-CD3 antibodies-stimulated human T cell activation at 1 uM assessed fold increase in CD25 expression measured by ELISA assay; note: reference of the scale not given here
# Type: functional, T cell line
measurement-name: fold change (FC)

INSERT INTO assay_data (molecule, reported) VALUES
  ('Cn1cnnc1CC1(c2cccc(N3Cc4c(cc(CN5CCC(C)(F)C5)cc4C(F)(F)F)C3=O)c2)COC1 (centres undefined)', '>=1.001'),
  ('C[C@@H](c1cc2c(c(C(F)(F)F)c1)CN(c1cccc(C3(Cc4nncn4C)COC3)c1)C2=O)N1CC2CC2C1 (some centres undefined)', '>=1.001'),
  ('CC(O)c1cc2c(c(C(F)(F)F)c1)CN(c1cccc(C3(Cc4nncn4C)COC3)c1)C2=O (centres undefined)', '>=1.001'),
  ('Cn1cnnc1CC1(c2cccc(NC(=O)c3csc(C(F)(F)F)n3)c2)COC1', 0.601),
  ('Cn1cnnc1[C@H](F)C1(c2cccc(N3Cc4c(cc(CN5CCC(F)CC5)cc4C(F)(F)F)C3=O)c2)COC1', '>=1.001');

Which measured fold change (FC) value corresponds to CO[C@@H]1CCN(Cc2cc3c(c(C(F)(F)F)c2)CN(c2cccc(C4(Cc5nncn5C)COC4)c2)C3=O)C[C@@H]1F (relative stereo) ?
>=1.001

`Cn1cc2c(n1)CCCN2Cc1cc2c(c(C(F)(F)F)c1)CN(c1cccc(C3(Cc4nncn4C)COC3)c1)C2=O` ?
>=1.001

`Cn1cnnc1-c1cnn(C)c1-c1cccc(N2Cc3c(cccc3C(F)(F)F)C2=O)c1` ?
0.601

`Cc1nc2c(o1)CCN(Cc1cc3c(c(C(F)(F)F)c1)CN(c1cccc(C4(Cc5nncn5C)COC4)c1)C3=O)C2` ?
>=1.001

====

Entries annotated with measured fold change (FC)
# protocol-text: Induction of activation of human CD56+ CD3- NK cells co-cultured with human K562 cells in 1:1 ratio and assessed as increase in TNF-alpha secretion at 0.625 uM measured by ELISA assay
# Type: functional, Natural killer cell
Please respond with just the number, no unit label.

Consider the worked cases shown below.
INSERT INTO results (cpd_smiles, measurement_name, reported) VALUES
  ('Cn1cnnc1CC1(c2cccc(N3Cc4c(cc(CN5CCC6(CC6)C5)cc4C(F)(F)F)C3=O)c2)COC1', 'fold change (FC)', 2.01),
  ('C[C@H](Cc1nncn1C)c1cccc(N2Cc3c(cc(CN4CC[C@H](F)C4)cc3C(F)(F)F)C2=O)c1', 'fold change (FC)', 2.01);

Which measured fold change (FC) value corresponds to `C[C@H](Cc1nncn1C)c1cccc(N2Cc3c(cccc3C(F)(F)F)C2=O)c1.Cl` ?
1.01

====

# protocol-text: Induction of anti-CD3 antibodies-stimulated human T cell activation at 1.11 uM assessed fold increase in TNF-alpha secretion measured by ELISA assay; note: reference of the scale not given here
# Assay type: functional, T cell line
measurement-name: fold change (FC)

INSERT INTO results (cpd_smiles, reported) VALUES
  ('C[C@H](Cc1nncn1C)c1cccc(N2Cc3c(cc(CN4CC[C@](C)(O)C4)cc3C(F)(F)F)C2=O)c1', '<=1.5'),
  ('C[C@H](Cc1nncn1C)c1cccc(N2Cc3c(ccnc3C3CC3)C2=O)c1', '<=1.5'),
  ('Cc1cc(C(=O)Nc2cccc([C@@H](C)Cc3nncn3C)c2)nc(C2CC2)n1', '<=1.5'),
  ('Cc1cc2c(c(C3CC3)n1)CN(c1cccc([C@H](C)Cc3nncn3C)c1)C2=O', '<=1.5'),
  ('Cn1cnnc1[C@@H]1C[C@@H]1c1cccc(N2Cc3c(ccnc3C(F)(F)F)C2=O)c1', '<=1.5'),
  ('C[C@@H](c1cc2c(c(C(F)(F)F)c1)CN(c1cccc(C3(Cc4nncn4C)COC3)c1)C2=O)N1CC[C@H](F)C1', 1.51),
  ('Cc1cc(C(=O)Nc2cccc(C3(Cc4nncn4C)COC3)c2)nc(C2CC2)n1', 1.51),
  ('Cc1n[nH]c(C)c1-c1cc2c(c(C(F)(F)F)c1)CN(c1cccc(C3(Cc4nncn4C)COC3)c1)C2=O', '<=1.5');

Which measured fold change (FC) value corresponds to `C[C@H](Cc1nncn1C)c1cccc(N2Cc3c(cc(CN4CC(O)C4)cc3C(F)(F)F)C2=O)c1` ?
<=1.5

`Cn1cnnc1CC1(c2cccc(N3Cc4c(cc(CN5CC[C@H](C#N)C5)cc4C(F)(F)F)C3=O)c2)COC1` ?
<=1.5

`C[C@H](Sc1nncn1C)c1cccc(NC(=O)c2cccc(C(F)(F)F)n2)c1` ?
1.51

====

# measurement-target: E3 ubiquitin-protein ligase CBL-B (Homo sapiens)
# Sequence (Q13191 whole entry, the tested form may be a part): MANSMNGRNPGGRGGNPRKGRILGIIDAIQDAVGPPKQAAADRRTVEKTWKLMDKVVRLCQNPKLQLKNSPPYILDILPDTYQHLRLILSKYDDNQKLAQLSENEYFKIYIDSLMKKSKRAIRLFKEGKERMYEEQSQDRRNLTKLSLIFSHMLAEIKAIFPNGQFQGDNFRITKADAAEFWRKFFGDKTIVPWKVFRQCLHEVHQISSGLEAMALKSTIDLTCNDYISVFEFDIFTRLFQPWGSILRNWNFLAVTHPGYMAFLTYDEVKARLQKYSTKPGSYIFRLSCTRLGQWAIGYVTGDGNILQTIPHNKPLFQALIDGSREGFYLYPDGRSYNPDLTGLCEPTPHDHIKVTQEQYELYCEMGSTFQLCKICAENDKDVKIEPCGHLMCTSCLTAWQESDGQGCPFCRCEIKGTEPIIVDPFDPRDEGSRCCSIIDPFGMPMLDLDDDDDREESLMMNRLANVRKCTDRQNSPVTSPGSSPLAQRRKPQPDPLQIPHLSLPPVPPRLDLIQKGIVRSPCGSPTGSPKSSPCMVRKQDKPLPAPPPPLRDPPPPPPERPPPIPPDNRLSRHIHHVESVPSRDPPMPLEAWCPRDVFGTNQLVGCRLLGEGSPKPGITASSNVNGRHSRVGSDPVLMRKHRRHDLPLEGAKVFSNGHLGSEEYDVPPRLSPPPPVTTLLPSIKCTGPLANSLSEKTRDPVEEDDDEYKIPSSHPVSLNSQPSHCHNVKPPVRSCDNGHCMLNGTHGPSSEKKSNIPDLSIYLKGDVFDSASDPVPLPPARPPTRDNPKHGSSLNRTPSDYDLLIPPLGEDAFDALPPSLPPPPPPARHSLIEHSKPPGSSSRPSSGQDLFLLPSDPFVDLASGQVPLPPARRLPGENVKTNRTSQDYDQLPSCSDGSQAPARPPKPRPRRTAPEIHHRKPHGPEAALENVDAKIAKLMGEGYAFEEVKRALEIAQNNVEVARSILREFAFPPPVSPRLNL
# protocol-text: Inhibition of N-terminal Avi-tagged human CBL-B (36 to 427 residues) incubated with 60 nM Src kinase for 1.5 hrs followed by incubation with fluorescently labeled UbcH5B-Ub for 1 hr and measured by TR-FRET assay
# Type: single protein
measurement-name: IC50

Which measured IC50 value corresponds to `Cn1cnnc1CC1(c2cccc(N3Cc4c(cc(N5CCN6CCC[C@H]6C5)cc4C(F)(F)F)C3=O)c2)COC1` ?
< 100 nM

`C[C@H](c1cc2c(c(C(F)(F)F)c1)CN(c1cccc(C3([C@@H](F)c4nncn4C)COC3)c1)C2=O)N1CCC2(CC2)C1` ?
< 100 nM

`Cn1cnnc1CC1(c2cccc(NC(=O)c3cc(CN4CCCCC4)nc(C4CC4)n3)c2)COC1` ?
< 100 nM

====

# protocol-text: Induction of anti-CD3 antibodies-stimulated human T cell activation at 8 uM assessed fold increase in CD25 expression measured by ELISA assay; note: reference of the scale not given here
# Type: functional, T cell line
measurement-name: fold change (FC)

Consider the worked cases shown below.
INSERT INTO results (molecule, measurement_name, reported) VALUES
  ('C[C@H](Cc1nncn1C)c1cccc(NC(=O)c2cccc(CCO)n2)c1', 'fold change (FC)', 0.801),
  ('Cc1ccc(C(=O)Nc2cc([C@H](C)Sc3nncn3C)ccn2)nc1C1CC1', 'fold change (FC)', '<=0.6'),
  ('CN1CC2CCC(C1)N2c1cc2c(c(C(F)(F)F)c1)CN(c1cccc([C@@](C)(F)C(F)(F)c3nncn3C)c1)C2=O', 'fold change (FC)', '>=1.001'),
  ('C[C@H](Sc1nncn1C)c1cccc(NC(=O)c2cc(C(C)(C)O)cc(C(F)(F)F)n2)c1', 'fold change (FC)', '>=1.001'),
  ('Cc1cc(C(=O)Nc2cccc(C3(Cc4nncn4C)COC3)c2)nc(C2CCC2)n1', 'fold change (FC)', '>=1.001');

Which measured fold change (FC) value corresponds to `C[C@H](Sc1nncn1C)c1cccc(NC(=O)c2cccc(C(C)(F)F)n2)c1` ?
>=1.001

`C[C@H](Cc1nncn1C)c1cccc(N2Cc3c(ccnc3C3CC3)C2=O)c1` ?
>=1.001

`Cn1cnnc1CC1(c2cccc(NC(=O)c3cc(C4CC4)nc(C4CC4)n3)c2)COC1` ?
>=1.001

Cn1cnnc1[C@H](F)[C@@](C)(F)c1cccc(N2Cc3c(cc(C4CC4)cc3C(F)(F)F)C2=O)c1 (single isomer, unassigned; 483) ?
0.801
